# microsomal CLint per record follows
experiment: Metabolic stability in human liver microsomes assessed as intrinsic clearance measured upto 60 mins in presence of NADPH by LC-MS/MS analysis; type: ADME, Microsome; conditions: read-out: CLH
Give the number; µL/min/mg is assumed, so skip it.

Below are worked cases with known answers.
[
  {
    "Record smiles": "CCc1nc(N)nc(N)c1Cc1ccc(-c2cccc(C(=O)OC)c2)cc1.Cl",
    "Observed": 625
  },
  {
    "Record smiles": "CCc1nc(N)nc(N)c1Cc1ccc(-c2ccc(C(=O)OC)cc2)cc1.Cl",
    "Observed": 459
  }
]

Now examine the next entry.
Find the recorded microsomal CLint belonging to "CCc1nc(N)nc(N)c1Cc1ccc(-c2cccc(C(=O)O)c2)cc1.Cl" and report it. 4.92
